Origin of values: patent US7998940B2

- Tested on: full length human vWF
- TEST_DESCRIPTION: 3-point dot blot screen, full length human vWF
- Format: binding
- CONDITION: 20 nM full length human vWF, ratio of fraction of aptamer bound with target protein to fraction bound without protein
PARAMETER: Screen- Human/No Protein
Numbers only.

>  <MOLECULE>
AMX236.B8: DNA SELEX 2 aptamer clone (nucleic acid, DNA, backbone not given here, DNA SELEX 2 aptamer clone) CTACCTACGATCTGACTAGCTTGGTAGCGACTCTGTGGAGCTGCGGTCTGGTCGACGTCAGCTTACTCTCATGTAGTTCC

>  <Screen- Human/No Protein>
1.66

$$$$
>  <MOLECULE>
AMX238.H5: DNA SELEX 2 aptamer clone (nucleic acid, DNA, backbone not given here, DNA SELEX 2 aptamer clone) DNA: CTACCTACGATCTGACTAGCGTGCAGTGCCTATTCTAGGCCGTGCGGTGCCTCCGTCACGCTTACTCTCATGTAGTTCC

>  <Screen- Human/No Protein>
3.75

$$$$
>  <MOLECULE>
AMX237.C1: DNA SELEX 2 aptamer clone (nucleic acid, DNA, backbone not given here, DNA SELEX 2 aptamer clone) DNA: CTACCTACGATCTGACTAGCGGAATGAGGATGCTGGTGGATTGCTCAGGTCTGCTGGCTGCTTACTCTCATGTAGTTCC

>  <Screen- Human/No Protein>
0.76

$$$$
>  <MOLECULE>
AMX237.F1: DNA SELEX 2 aptamer clone (nucleic acid, DNA, backbone not given here, DNA SELEX 2 aptamer clone) DNA: CTACCTACGATCTGACTAGCTTTCAGTCTTCCACGTTTATAGGGTTTGGCATTGGGTCTGGCTTACTCTCATGTAGTTCC

>  <Screen- Human/No Protein>
0.98

$$$$
>  <MOLECULE>
AMX236.C6: DNA SELEX 2 aptamer clone (nucleic acid, DNA, backbone not given here, DNA SELEX 2 aptamer clone) CTACCTACGATCTGACTAGCGGAATGAGAGTGCTGGTGGATTGCTCAGGTCTGCTGGCTGCTTACTCTCATGTAGTTCC

>  <Screen- Human/No Protein>
1.06

$$$$
>  <MOLECULE>
AMX237.A2: DNA SELEX 2 aptamer clone (nucleic acid, DNA, backbone and methylation of C not given here, DNA SELEX 2 aptamer clone) CTACCTACGATCTGACTAGCTCCAGTGTTTCATCCAATAACCGTGCGGTGCCTCCGTGAGCTTACTCTCATGTAGTTCC

>  <Screen- Human/No Protein>
2.60

$$$$
>  <MOLECULE>
AMX238.A12: DNA SELEX 2 aptamer clone (nucleic acid, DNA, backbone not given here, DNA SELEX 2 aptamer clone) DNA: CTACCTACGATCTGACTAGCCAGTTCTGGGAAAAATTATTTTTTTATTTCGATCGTATATGCTTACTCTCATGTAGTTCC

>  <Screen- Human/No Protein>
1.23

$$$$

Kindly review the next molecule as well.
Incoming: Reported Screen- Human/No Protein for AMX237.B1: DNA SELEX 2 aptamer clone (nucleic acid, DNA, backbone not given here, DNA SELEX 2 aptamer clone) CTACCTACGATCTGACTAGCTTGGTAGCGACACAGTGGAGCTGCGGTTTGGTCGACGTCAGCTTACTCTCATGTAGTTCC : what is it?
Outgoing: 2.00
